# run.description: Inhibition of transfer of […] to biotin K-ras peptide (KKSKTKCVLL) catalyzed by bovine GGTase-I
pIC50: −log10 of the molar value.
Mark fulfilled for reported pIC50 of 6 or greater; mark not fulfilled for anything smaller.

Cn1cncc1C(OCc1ccc(C#N)cc1-c1ccc(F)c(Cl)c1)c1ccc(C#N)nc1 (centres undefined)	not fulfilled
Cn1cncc1C(OCc1ccc(C#N)cn1)c1ccc(C#N)c(-c2cccc3ccccc23)c1 (centres undefined)	fulfilled
Cn1cncc1C(OCc1ccc(C#N)cc1)c1ccc(C#N)c(-c2cccc3cccnc23)c1 (centres undefined)	fulfilled

Could you verify whether the entry Cn1cncc1C(OCc1ccc(C#N)nc1-c1cc(F)cc(F)c1)c1ccc(C#N)cc1 (centres undefined) shows pIC50 of no less than 6?
not fulfilled

Could you verify whether the entry Cn1cncc1C(OCc1ccc(C#N)nc1-c1cccc(Cl)c1)c1ccc(C#N)cc1 (centres undefined) shows pIC50 of no less than 6?
not fulfilled

Could you verify whether the entry Cn1cncc1C(OCc1ccc(C#N)nc1-c1cccc(OC(F)(F)F)c1)c1ccc(C#N)cc1 (centres undefined) shows pIC50 of no less than 6?
fulfilled

src = BindingDB's records for doi:10.1016/s0960-894x(03)00195-1
